Would you mind telling me the reported Papp B→A of each entry?
Assay: Apparent permeability of the compound from basolateral to apical side in MDCK cells
Assay type: ADME, cell-based, Canis lupus familiaris
Conditions: dog
The answer should read as a number with its unit following.

INSERT INTO assay_data (chemical_smiles, measured_endpoint, value_observed) VALUES
  ('O=C(NC[C@H](NC(=O)c1c(Cl)cc2c(c1Cl)CCN(C(=O)c1ccc3ccoc3c1)C2)C(=O)O)c1cccs1', 'Papp B→A', '0.3 ×10⁻⁶ cm/s');

Which Papp B→A value belongs to CCOC(=O)[C@H](CNC(=O)c1cccs1)NC(=O)c1c(Cl)cc2c(c1Cl)CCN(C(=O)c1ccc3ccoc3c1)C2 ? 10 ×10⁻⁶ cm/s

* * *

Experiment: Oral bioavailability in Sprague-Dawley rat at 100 mg/kg
Type: ADME, organism-based
Conditions: in vivo
measured_endpoint: bioavailability

Which bioavailability value belongs to CCOC(=O)[C@H](CNC(=O)c1cccs1)NC(=O)c1c(Cl)cc2c(c1Cl)CCN(C(=O)c1ccc3ccoc3c1)C2 ? 31%

* * *

Molecular target: Intercellular adhesion molecule (ICAM-1), Integrin alpha-L/beta-2 (Homo sapiens, UniProt P05107+P05362+P20701)
Sequence (P20701 whole entry): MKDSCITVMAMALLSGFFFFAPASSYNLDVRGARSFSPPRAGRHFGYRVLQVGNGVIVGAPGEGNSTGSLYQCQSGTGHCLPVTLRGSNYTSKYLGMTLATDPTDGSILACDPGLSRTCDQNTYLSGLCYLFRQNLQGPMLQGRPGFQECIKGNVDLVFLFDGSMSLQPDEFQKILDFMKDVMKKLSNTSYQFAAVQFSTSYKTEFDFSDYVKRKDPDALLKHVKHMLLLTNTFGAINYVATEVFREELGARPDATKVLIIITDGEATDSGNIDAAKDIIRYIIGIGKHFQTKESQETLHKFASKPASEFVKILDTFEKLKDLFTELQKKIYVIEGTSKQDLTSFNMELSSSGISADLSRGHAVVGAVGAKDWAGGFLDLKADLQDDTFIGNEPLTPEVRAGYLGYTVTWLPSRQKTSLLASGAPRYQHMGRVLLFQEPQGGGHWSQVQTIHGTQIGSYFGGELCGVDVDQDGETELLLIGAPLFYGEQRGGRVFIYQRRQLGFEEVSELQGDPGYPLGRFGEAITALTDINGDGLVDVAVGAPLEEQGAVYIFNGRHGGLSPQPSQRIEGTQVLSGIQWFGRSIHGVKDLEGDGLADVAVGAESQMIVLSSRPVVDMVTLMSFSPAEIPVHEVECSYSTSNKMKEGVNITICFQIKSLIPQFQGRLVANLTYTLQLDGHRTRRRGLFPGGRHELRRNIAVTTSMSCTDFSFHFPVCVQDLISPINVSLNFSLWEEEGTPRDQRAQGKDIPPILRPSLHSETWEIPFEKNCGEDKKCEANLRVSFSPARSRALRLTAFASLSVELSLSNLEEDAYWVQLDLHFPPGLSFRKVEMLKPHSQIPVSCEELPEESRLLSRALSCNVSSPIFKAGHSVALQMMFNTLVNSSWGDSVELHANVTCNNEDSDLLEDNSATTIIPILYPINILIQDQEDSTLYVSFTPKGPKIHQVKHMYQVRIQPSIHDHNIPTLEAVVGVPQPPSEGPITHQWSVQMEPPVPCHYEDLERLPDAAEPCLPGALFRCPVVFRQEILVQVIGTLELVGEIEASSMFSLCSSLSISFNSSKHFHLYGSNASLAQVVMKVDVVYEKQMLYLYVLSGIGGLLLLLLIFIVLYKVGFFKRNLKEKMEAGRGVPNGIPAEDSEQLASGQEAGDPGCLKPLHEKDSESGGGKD
Sequence (P05362 whole entry): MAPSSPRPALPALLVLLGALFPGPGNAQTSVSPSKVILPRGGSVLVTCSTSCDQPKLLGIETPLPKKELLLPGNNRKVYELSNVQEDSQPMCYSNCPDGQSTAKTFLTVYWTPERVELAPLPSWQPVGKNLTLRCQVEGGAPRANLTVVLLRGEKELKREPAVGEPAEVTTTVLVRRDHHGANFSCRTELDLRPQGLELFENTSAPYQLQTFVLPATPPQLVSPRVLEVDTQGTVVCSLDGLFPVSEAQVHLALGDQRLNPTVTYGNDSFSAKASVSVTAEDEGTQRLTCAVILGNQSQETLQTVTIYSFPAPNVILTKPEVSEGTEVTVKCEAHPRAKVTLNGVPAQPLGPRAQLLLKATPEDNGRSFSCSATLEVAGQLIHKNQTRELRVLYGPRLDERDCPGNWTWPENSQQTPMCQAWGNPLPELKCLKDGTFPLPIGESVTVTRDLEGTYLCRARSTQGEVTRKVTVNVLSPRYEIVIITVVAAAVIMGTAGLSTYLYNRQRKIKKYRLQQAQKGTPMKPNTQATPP
Sequence (P05107 whole entry): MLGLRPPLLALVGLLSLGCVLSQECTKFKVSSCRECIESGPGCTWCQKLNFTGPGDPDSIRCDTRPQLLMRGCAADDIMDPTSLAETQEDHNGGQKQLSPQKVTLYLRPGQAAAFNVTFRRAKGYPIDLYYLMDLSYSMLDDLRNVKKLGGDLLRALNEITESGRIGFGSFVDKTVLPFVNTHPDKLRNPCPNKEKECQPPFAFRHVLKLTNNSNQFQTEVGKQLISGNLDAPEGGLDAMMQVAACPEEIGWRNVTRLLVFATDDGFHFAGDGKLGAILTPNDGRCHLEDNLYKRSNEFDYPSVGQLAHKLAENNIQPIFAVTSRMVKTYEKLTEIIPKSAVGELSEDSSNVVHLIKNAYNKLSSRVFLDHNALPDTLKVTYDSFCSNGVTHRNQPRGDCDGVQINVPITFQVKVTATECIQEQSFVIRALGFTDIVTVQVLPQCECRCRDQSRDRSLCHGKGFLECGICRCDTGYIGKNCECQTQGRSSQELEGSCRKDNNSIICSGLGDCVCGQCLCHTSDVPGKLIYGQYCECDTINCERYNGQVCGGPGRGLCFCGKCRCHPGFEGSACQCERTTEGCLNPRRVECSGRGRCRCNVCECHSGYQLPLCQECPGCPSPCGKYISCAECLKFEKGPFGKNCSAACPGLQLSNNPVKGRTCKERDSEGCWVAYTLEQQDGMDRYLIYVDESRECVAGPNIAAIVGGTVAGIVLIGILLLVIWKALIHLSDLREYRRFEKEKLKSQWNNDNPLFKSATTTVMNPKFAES
Assay: Inhibition of LFA1/ICAM1 interaction in human Hut-78 cells by cell migration assay
Would you mind telling me the reported IC50 of each entry?

Worked set:
INSERT INTO results (chemical_smiles, value_observed) VALUES
  ('CC(=O)NC[C@H](NC(=O)c1c(Cl)cc2c(c1Cl)CCN(C(=O)c1ccc(Cl)cc1)C2)C(=O)O', '620 nM'),
  ('O=C(NC[C@H](NC(=O)c1c(Cl)cc2c(c1Cl)CCN(C(=O)c1ccc3ccoc3c1)C2)C(=O)O)c1cccs1', '9 nM'),
  ('O=C(N[C@@H](Cc1cccc(O)c1)C(=O)O)c1c(Cl)cc2c(c1Cl)CCN(C(=O)c1ccc(Cl)cc1)C2', '> 1000 nM'),
  ('O=C(NC[C@H](NC(=O)c1c(Cl)cc2c(c1Cl)CCN(C(=O)c1ccc(Cl)cc1)C2)C(=O)O)c1ccccc1', '29 nM'),
  ('O=C(NC[C@H](NC(=O)c1c(Cl)cc2c(c1Cl)CCN(C(=O)c1ccc(Cl)cc1)C2)C(=O)O)c1ccco1', '51 nM');

Working through the 2 compounds below one at a time, give IC50 for each.
1. O=C(N[C@@H](CNC(=O)C1CCCCC1)C(=O)O)c1c(Cl)cc2c(c1Cl)CCN(C(=O)c1ccc(Cl)cc1)C2
2. Cc1ccc(C(=O)N2CCc3c(cc(Cl)c(C(=O)N[C@@H](CNC(=O)c4cccs4)C(=O)O)c3Cl)C2)cc1

["540 nM", "10 nM"]

Which IC50 value belongs to O=C(N[C@@H](Cc1c[nH]c2ccccc12)C(=O)O)c1c(Cl)cc2c(c1Cl)CCN(C(=O)c1ccc(Cl)cc1)C2 ? 810 nM

* * *

Test: AUClast in Sprague-Dawley rat at 20 mg/kg, po
Format: ADME, organism-based
Parameters: time 0 - last, dose 20 mg/kg, route oral
Details: plasma
measured_endpoint: AUC(0-t) (ng·h/mL)
Answers are plain numbers, in ng·h/mL.

Which AUC(0-t) value belongs to CCOC(=O)[C@H](CNC(=O)c1cccs1)NC(=O)c1c(Cl)cc2c(c1Cl)CCN(C(=O)c1ccc3ccoc3c1)C2 ? 13900

The measurements presented in this section are drawn from ChEMBL document CHEMBL1221241.
